Entries annotated with measured LogP
# MEASUREMENT_CONTEXT: pH 2.7
Marks after values point to notes of the source that are not given here.
ENDPOINT_NAME: LogP

MOLECULE | ENDPOINT_NAME | OBSERVED
C#CCCCC(=O)Nc1cccc(CO/N=C(/c2ccccc2)c2noc(=O)n2C)n1 [Example 302] | LogP | 3.17 [a]
Cn1c(/C(=N\OCc2cccc(NC(=O)CC3CCCCC3)n2)c2ccccc2)noc1=O [Example 208] | LogP | 4.26 [a]
CCCCCOC(=O)Nc1nc(CO/N=C(/c2ccc(C)cc2)c2noc(=O)n2C)cs1 [Example 41] | LogP | 4.41 [a]
Cn1c(/C(=N\OCc2cccc(NC(=O)COc3ccc(Cl)cc3Cl)n2)c2ccccc2)noc1=O [Example 274] | LogP | 4.61 [a]
Cn1c(/C(=N\OCc2cccc(NC(=O)OCCCC(F)(F)C(F)(F)F)n2)c2ccccc2)noc1=O [Example 293] | LogP | 4.29 [a]
C#CCOC(=O)Nc1cccc(CO/N=C(/c2ccccc2)c2noc(=O)n2C)n1 [Example 342] | LogP | 3.13 [a]
Cn1c(C(=NOCc2cccc(NC(=O)COc3ccccc3Br)n2)c2ccccc2)noc1=O [Example 269] | LogP | 4.25 [a]
COc1cccc(COC(=O)Nc2cccc(CO/N=C(/c3ccccc3)c3noc(=O)n3C)n2)c1 [compound 441] | LogP | 3.96 [a]
CCCCCCCC(=O)Nc1cccc(CO/N=C(/c2ccccc2)c2noc(=O)n2C)n1 [Example 32] | LogP | 4.71 [a]
Cn1c(/C(=N\OCc2cccc(NC(=O)OCCCCCl)n2)c2ccccc2)noc1=O [compound 550] | LogP | 3.83 [a]
Cn1c(C(=NOCc2cccc(NC(=O)OC(C)(C)C)n2)c2cccc(F)c2F)noc1=O [Example 254] | LogP | 4.01 [a]
Cn1c(/C(=N\OCc2cccc(NC(=O)CCC3CC3)n2)c2ccccc2)noc1=O [Example 62] | LogP | 3.51 [a]
C=CCCCCCC(=O)Nc1cccc(CO/N=C(/c2ccccc2)c2noc(=O)n2C)n1 [Example 99] | LogP | 4.3 [a]
COC(=O)C(C)COC(=O)Nc1cccc(CON=C(c2ccccc2)c2noc(=O)n2C)n1 (stereo not shown) [compound 491] | LogP | 3.33 [a]
CC(Oc1ccccc1Cl)C(=O)Nc1cccc(CO/N=C(/c2ccccc2)c2noc(=O)n2C)n1 (stereo not shown) [Example 231] | LogP | 4.41 [a]
Cn1c(/C(=N\OCc2csc(NC(=O)c3ccccc3Br)n2)c2ccccc2)noc1=O [Example 81] | LogP | 3.51 [a]

====

# Tested on: Pythium ultimum
# ASSAY_OVERVIEW: Pythium test (cotton)/seed treatment
# Format: in vivo
# MEASUREMENT_CONTEXT: 10 g/dt seed of active ingredient, emerged seedlings after 7 days
Label False if Eff. % falls below 90%; label True in every other case.

COMPOUND | TEST_TARGET | ANSWER_LABEL
C#CCOC(=O)Nc1cccc(CO/N=C(/c2ccccc2)c2noc(=O)n2C)n1 | Pythium ultimum | True
C#CCC(C)OC(=O)Nc1cccc(CO/N=C(/c2ccccc2)c2noc(=O)n2C)n1 (stereo not shown) | Pythium ultimum | True
C#CCCOC(=O)Nc1cccc(CO/N=C(/c2ccccc2)c2noc(=O)n2C)n1 | Pythium ultimum | True
Cn1c(/C(=N\OCc2cccc(NC(=O)OCc3ccccc3)n2)c2ccccc2)noc1=O | Pythium ultimum | False
CCCCC(=O)Nc1cccc(CO/N=C(/c2ccccc2)c2noc(=O)n2C)n1 | Pythium ultimum | True
CCOCC(C)OC(=O)Nc1cccc(CO/N=C(/c2ccccc2)c2noc(=O)n2C)n1 (stereo not shown) | Pythium ultimum | True

====

# MEASUREMENT_CONTEXT: pH 2.7
Marks after values point to notes of the source that are not given here.
Entries annotated with measured LogP

MOLECULE | LogP
CCC(C)(C)C(=O)Nc1cccc(CO/N=C(/c2ccccc2)c2noc(=O)n2C)n1 [Example 221] | 3.8 [a]
Cn1c(/C(=N\OCc2cccc(NC(=O)OC3CCCCC3)n2)c2ccc(F)cc2)noc1=O [Example 351] | 4.54 [a]
Cn1c(/C(=N\OCc2cccc(N)n2)c2cccc(F)c2)noc1=O [Example 83] | 1.34 [a]
CCCCCC(=O)Nc1cccc(CO/N=C(/c2cccc(F)c2)c2noc(=O)n2C)n1 [Example 376] | 3.99 [a]
CC(C)=CCCC(C)CC(=O)Nc1cccc(CO/N=C(/c2ccccc2)c2noc(=O)n2C)n1 (centres unmarked) [Example 235] | 4.88 [a]
COc1ccccc1OCC(=O)Nc1nc(CO/N=C(/c2ccccc2)c2noc(=O)n2C)cs1 [Example 171] | 3.55 [a]
Cn1c(C(=NOCc2csc(NC(=O)c3ccccc3)n2)c2ccccc2)noc1=O [Example 257] | 3.44 [a]
CCCCCC(=O)Nc1cccc(CO/N=C(/c2cccc(OC)c2)c2noc(=O)n2C)n1 [Example 211] | 3.92 [a]

====

Entries annotated with measured LogP
# MEASUREMENT_CONTEXT: pH 2.7
Marks after values point to notes of the source that are not given here.

COMPOUND | LogP
Cc1cccc(/C(=N/OCc2cccc(NC(=O)OC(C)CC(C)C)n2)c2noc(=O)n2C)c1 (stereo not shown) | 5.05 [a]
CCCCC(C)OC(=O)Nc1cccc(CO/N=C(/c2ccccc2)c2noc(=O)n2C)n1 (stereo not shown) | 4.78 [a]
Cn1c(/C(=N\OCc2cccc(NCCc3ccccc3)n2)c2ccccc2)noc1=O | 2.78 [a]
Cn1c(/C(=N\OCc2cccc(NC(=O)CCC3CCC3)n2)c2ccccc2)noc1=O | 4.02 [a]

====

# MEASUREMENT_CONTEXT: pH 2.7
Marks after values point to notes of the source that are not given here.

MOLECULE | LogP
CCCC(C)C(=O)Nc1cccc(CO/N=C(/c2ccccc2)c2noc(=O)n2CC)n1 (stereo not shown) | 4.06 [a]
Cn1c(/C(=N\OCc2cccc(NC(=O)C(F)(F)C(F)(F)C(F)(F)F)n2)c2ccccc2)noc1=O | 4.17 [a]
Cn1c(/C(=N\OCc2csc(NC(=O)SC(C)(C)C)n2)c2ccccc2)noc1=O | 4.04 [a]
COc1ccccc1COC(=O)Nc1cccc(CO/N=C(/c2ccccc2)c2noc(=O)n2C)n1 | 4.06 [a]

====

Entries annotated with measured LogP
# MEASUREMENT_CONTEXT: pH 2.7
Marks after values point to notes of the source that are not given here.

COMPOUND | LogP
Cn1c(/C(=N\OCc2cccc(NC(=O)OCCc3ccc(F)cc3)n2)c2ccccc2)noc1=O | 4.19 [a]
Cn1c(C(=NOCc2cccc(NC(=O)OCC(F)(F)F)n2)c2ccccc2)noc1=O | 3.57 [a]
C=C(C)COC(=O)Nc1cccc(CON=C(c2ccccc2)c2noc(=O)n2C)n1 | 3.73 [a]
Cc1ccc(C(=NOCc2csc(N(C)C=O)n2)c2noc(=O)n2C)cc1 | 3.06 [a]
CC(=O)Nc1cccc(CO/N=C(/c2ccccc2)c2noc(=O)n2C)n1 | 2.44 [a]
CC(Oc1ccc(Cl)cc1)C(=O)Nc1cccc(CON=C(c2ccccc2)c2noc(=O)n2C)n1 (stereo not shown) | 4.35 [a]
CCC(C)C(=O)Nc1cccc(CO/N=C(/c2ccccc2)c2noc(=O)n2C)n1 (stereo not shown) | 3.41 [a]
Cn1c(/C(=N\OCc2cccc(NC(=O)OCCF)n2)c2ccccc2)noc1=O | 2.96 [a]
Cc1cccc(OCC(=O)Nc2cccc(CO/N=C(/c3ccccc3)c3noc(=O)n3C)n2)c1 | 4.07 [a]
COC(C(=O)Nc1cccc(CO/N=C(/c2ccccc2)c2noc(=O)n2C)n1)c1ccccc1 (stereo not shown) | 3.85 [a]
COc1cccc(C(=NOCc2cccc(NC(=O)c3cccc(F)c3)n2)c2noc(=O)n2C)c1 | 3.72 [a]
Cn1c(/C(=N\OCc2cccc(NC(=O)CCCc3ccccc3)n2)c2ccccc2)noc1=O | 4.04 [a]
Cn1c(/C(=N\OCc2cccc(NC(=O)CCc3ccc(Cl)cc3)n2)c2ccccc2)noc1=O | 4.17 [a]
CCC(CC)C(=O)Nc1cccc(CO/N=C(/c2ccccc2)c2noc(=O)n2C)n1 | 3.71 [a]
CC(C)(C)OC(=O)Nc1cccc(CON=C(C(N)=NO)c2ccc(F)cc2)n1 (mixture of isomers) | 2.68 [a]
CC(Oc1cccc(Br)c1)C(=O)Nc1nc(CO/N=C(/c2ccccc2)c2noc(=O)n2C)cs1 (stereo not shown) | 4.17 [a]

====

# MEASUREMENT_CONTEXT: pH 2.7
Marks after values point to notes of the source that are not given here.
Entries annotated with measured LogP
ENDPOINT_NAME: LogP

MOLECULE | ENDPOINT_NAME | OBSERVED
Cn1c(/C(=N\OCc2cccc(NC(=O)OCC(C)(C)c3ccccc3)n2)c2ccccc2)noc1=O | LogP | 4.71 [a]
Cn1c(/C(=N\OCc2cccc(NC(=O)COc3cccc(F)c3)n2)c2ccccc2)noc1=O | LogP | 3.78 [a]
CCCCCC(C)OC(=O)Nc1cccc(CO/N=C(/c2ccccc2)c2noc(=O)n2C)n1 (stereo not shown) | LogP | 5.19 [a]
CCCCCOC(=O)Nc1cccc(CO/N=C(/c2cccc(F)c2)c2noc(=O)n2C)n1 | LogP | 4.53 [a]

Values were extracted from patent US9090600B2.
